molecules and their reported pEC50
Tested on: HCV replicon cells
Assay: Cell-based HCV replicon assay (replicon RNA by Taqman real time PCR)
Details: HCV replicon 1b, cells harvested on day 3; read-out: 1b EC50
pEC50: −log10 of the molar value.

CCCOP1(=O)OC[C@H]2O[C@@H](n3ccc(=O)[nH]c3=O)[C@](C)(N=[N+]=[N-])[C@@H]2O1 (stereo partly drawn) [Compound 86]    < 4.00
CC(C)OP1(=O)OC[C@H]2O[C@@H](n3ccc(=O)[nH]c3=O)[C@](C)(N=[N+]=[N-])[C@@H]2O1 (single isomer, unassigned) [Compound 563]    < 4.00

For the next question, use this molecule.
Q: Which pEC50 value belongs to CC(C)OP1(=O)OC[C@H]2O[C@@H](n3ccc(=O)[nH]c3=O)[C@](C)(N=[N+]=[N-])[C@@H]2O1 (stereo partly drawn) [Compound 44] ?
A: < 4.00
